Recorded growth, one value per entry.
Test system: HCC-2998 colon
Experiment: NCI-60 one-dose screen, 48 h (100 = growth as untreated, 0 = no growth, -100 = all killed)
Details: 10 µM unless noted
Compounds without any hit were thinned out: in the full panel of roughly 83,000, 20% have a hit.
Give the quantity in %, number only.

Worked examples, 5 compounds total:
COc1cccc(/C=C/C(=O)c2c(C)nc3ccccc3c2/C=C/c2ccc(C)cc2)c1OC
36.4
CC/C=C/C/C=C/C/C=C/C/C=C/C/C=C/C/C=C/CCC(=O)Nc1ccn([C@@H]2O[C@H](CO)[C@@H](O)C2(F)F)c(=O)n1
55.1
CNC(=O)NCC1OC(n2cnc3c(NC(=O)Nc4ccccc4)ncnc32)C(O[Si](C)(C)C(C)(C)C)C1CC(=O)N(C)OC (stereo not drawn)
-13.4
Cc1ccccc1NC(=O)N/C(N)=N/c1nc(-c2cccc([N+](=O)[O-])c2)cs1
39.6
O=C(Nc1ccc(-n2cc(-c3ccncc3)c(-c3ccc(Cl)c(O)c3)n2)cc1)N1CCOCC1
109

The recorded growth for COC(=O)CCC1=C(C)C2=NC1=CC1=NC(=CC3=NC(=Cc4[nH]c(/c(=C(/C)O)c4C)=C2)C(C(C)=O)=C3C)C(C)=C1CCC(=O)OC is 104

// field: growth; key: CN(C)CC1=NC2SC=C(c3ccccc3)C2C(=O)N1CC#N (stereo not drawn) ; value = 97.5

The recorded growth for Cn1c2c(c3ccc(Cl)c(Cl)c31)C(C#N)C1(CCNCC1)NC2=O (stereo not drawn) is -17.8

###

Test system: OVCAR-8 ovarian
Assay: NCI-60 one-dose screen, 48 h (100 = growth as untreated, 0 = no growth, -100 = all killed)
Conditions: 10 µM unless noted
This is part of a sample that, as a whole, favours compounds with a hit. Of some 83,000 tested, about 20% had one in any assay.
Field: label. Allowed values: T (growth < 80%) or F (growth >= 80%).

The following molecules have reported results that may help.
Cc1cc(=O)[nH]c(N=Nc2c(O)[nH]c3ccccc23)n1
F
NNC(=O)c1nc(N)n(-c2ccc(S(N)(=O)=O)cc2)n1
F
Cc1c(C(=O)OC(=NC2CCCCC2)NC2CCCCC2)sc2c1c(=O)nc1c(C#N)n[nH]n12
F
CCCCCc1nc2c(c3c1CCCC3)CCCC2
T
CC(CCc1ccc(Cl)c(Cl)c1)NCc1ccc(C(C)(C)C)cc1 (stereo not given)
F

Prompt: In the record for CCCCCCN(CCCCCC)c1ccc(/C=C2/SC(=O)N(c3nc(N4CCCC4)nc(N4CCCC4)n3)C2=O)c(C)c1 , is growth less than 80%?
Response: T

Prompt: Item O=C1/C(=C\c2cccnc2)SC(=S)N1CCc1ccc(O)cc1 : growth beneath 80%, strictly?
Response: T

Prompt: is_below(growth, 80%) for NC(=O)c1ccc[n+](Cc2ccc(Cl)cc2Cl)c1 ?
Response: F

Prompt: Decide: growth of N#CC1=C(c2ccc(Br)cc2)NC(SCC(=O)c2ccc(Br)cc2)NC1=O (stereo not given) strictly below 80%?
Response: F

Prompt: # check: growth < 80% for O=C(CSc1nnc(-c2ccc(NC(=O)c3cccnc3)cc2)o1)Nc1cccc(Br)c1
Response: F

Prompt: Is it true that growth reported for COc1cc(/C=C/C(=O)N2CCN(C(=O)c3cc(OC)c(OC)c(OC)c3)CC2)ccc1OCCCN1C(=O)c2cccc3cccc(c23)C1=O is less than 80%?
Response: T

Prompt: Hello, is growth of the following molecule strictly smaller than 80%? O=C(/C=C/c1c(Cl)nc2sccn12)c1ccc(F)c(F)c1
Response: F

Prompt: Find out if reported growth for COc1ccc(-c2cc(-c3cc(OC)ccc3OC)nc(SCC(=O)c3ccccc3)c2C#N)cc1 is less than 80%
Response: F

Prompt: Input Cc1ccc(-c2cc3c(cc2O)C2CCCCC2(N2CCOCC2)O3)cc1 (stereo not given) ; condition: growth strictly below 80%. Does it hold?
Response: F

Prompt: Strictly below 80% in growth? Fc1ccc(CNc2c3ccccc3nc3ccccc23)cc1F
Response: T

Prompt: Answer whether the molecule COC(=O)c1c2c(c[n+]([O-])c1C)C(=O)C=CC2=O has growth strictly less than 80%
Response: T

Prompt: A record lists O=C(O)C1CCC(=O)N1C(=O)OCc1ccccc1 (stereo not given) . Is its growth below 80%?
Response: F

###

System: SF-539 CNS
Assay: NCI-60 one-dose screen, 48 h (100 = growth as untreated, 0 = no growth, -100 = all killed)
Settings: 10 µM unless noted
The panel holds about 83,000 compounds, 20% with a hit somewhere; the sample as a whole holds those more often.
Criterion: growth meeting or surpassing 80%. Met: True. Not met: False.

CCCCn1c(=O)c2c(nc3n2CCCN3CCc2ccc(OCC(=O)NCCN(CC)CC)cc2)n(CCCC)c1=O
False
CCN1C(=O)N(CC)C2Nn3c(s/c(=C\c4cccc([N+](=O)[O-])c4)c3=O)=NC21 (stereo not given)
False
Fc1c[c-]c(-c2ccccn2)c(F)c1.[CH3-].[Pt+2].c1ccc(P(C[PH+](c2ccccc2)c2ccccc2)c2ccccc2)cc1
False
CCCCCCN(CCCCCC)c1ccc(/C=C2/SC(=O)N(c3nc(N4CCCC4)nc(N4CCCC4)n3)C2=O)c(C)c1
True
C=CCOC1=CC(=O)c2ccccc2C1=O
True
O=C(Nc1cccc2c(O)c(N=Nc3ccc(S(=O)(=O)Nc4nccs4)cc3)cc(N=Nc3ccc(S(=O)(=O)Nc4nccs4)cc3)c12)C(Cl)Cl
True
CC1=C([Se]CC(OC(=O)[C@@H](CO)NC(=O)OC(C)(C)C)C(=O)NC(C)(C)C)C(=O)c2ccccc2C1=O (stereo not given in full)
False
CC1=NOC(=O)/C1=C\c1ccc(O)cc1
True

Prompt: For this compound, is measured growth 80% or higher? CC1(c2ccccc2)NC(=O)N(NC(=O)CSc2nc(-c3cccs3)nc3ccccc23)C1=O (stereo not given)
Response: True

Prompt: Determine whether measured growth meets or exceeds 80% for CCOP(=O)(OCC)C1CP(=O)(c2ccccc2)CC(C)=C1Cl (stereo not given)
Response: True

Prompt: Quick check, growth >= 80%? c1ccc(Nc2nc(-c3ccccn3)cs2)nc1
Response: False

Prompt: Does Nc1nc(N)c2c(n1)NC(c1ccccc1)C1CCc3ccccc3C1=N2 (stereo not given) have a reported growth of at least 80%?
Response: False

Prompt: Check if growth >= 80% (inclusive). Item: Cc1ccccc1NC(=O)N/C(N)=N/c1nc(C)c(C)s1
Response: False

###

System: RXF 393 renal
Assay: NCI-60 one-dose screen, 48 h (100 = growth as untreated, 0 = no growth, -100 = all killed)
Conditions: 10 µM unless noted
The panel holds about 83,000 compounds, 20% with a hit somewhere; the sample as a whole holds those more often.
The following ranges of growth define the classes used here: range 1 (below 30%), range 2 (30% to below 90%), range 3 (90% or more)

CC1(C)CC(=O)C2=C(C1)N(c1ccc(OC(F)(F)F)cc1)C(N)=C(C#N)C2c1ccc(Cl)cc1 (stereo not drawn)
range 2
CCCCOc1nc2ccccc2cc1C1CNC(=O)c2ccccc2N1 (stereo not drawn)
range 1
CC1OC(O[C@H]2/C=C/C=C/C=C/C=C/C=C/C=C/C=C/[C@H](C)[C@@H](O)[C@@H](C)[C@H](C)OC(=O)CC(O)CC(O)CCC(O)C(O)CC(O)C[C@]3(O)C[C@H](O)C(C(=O)O)C(C2)O3)C(O)[C@H](N)C1O (stereo partly drawn)
range 1
COC(=O)CCC1=C(C)C2=NC1=CC1=NC(=CC3=NC(=Cc4[nH]c(/c(=C(/C)O)c4C)=C2)C(C(C)=O)=C3C)C(C)=C1CCC(=O)OC
range 3
N#Cc1c(N)nc(NCCO)nc1-c1ccc(F)cc1
range 3

Please turn your attention to the following entry.
Prompt: Record COc1nc(N(C)O)nc(N(C)O)n1 — which class?
Response: range 2

###

# growth annotations
Tested on: OVCAR-8 ovarian
Assay: NCI-60 one-dose screen, 48 h (100 = growth as untreated, 0 = no growth, -100 = all killed)
Conditions: 10 µM unless noted
About 83,000 compounds went through this panel and 20% of them were active in at least one assay; those are over-represented in the sample as a whole.
Express your answer in %, writing the number without its unit.

CC1=C([Se]CC(OC(=O)CC[Se]c2ccccc2)C(=O)NCCCCCC(=O)OCc2ccccc2)C(=O)c2ccccc2C1=O (centres undefined)
10.6
CCN(CC)CCn1nc2c3c(cccc3c1=O)-c1ccccc1-2
23.3
Cc1cc(NCc2cc(Nc3ccnc4cc(Cl)ccc34)ccc2F)nc(N2CCN(C)CC2)n1
12.1
COc1ccc2c(c1)O/C(=C\c1cccc(OCC(=O)Nc3nc(C)c(C)s3)c1)C2=O
15.1
COc1cc(N2C(=O)c3nccnc3C2=O)cc(OC)c1OC
104
Cc1c2c(c(C)c3c1oc1cc(O)ccc13)C(=O)N(CCN1CCCCC1)C2=O
64.2

Query N#Cc1c(N)nn(C(=O)c2ccc(NC(=O)c3ccccn3)cc2)c1-c1ccc(Cl)cc1 yields growth of 18.4

The measured growth associated with N#C/C(=C\c1ccc2c(c1)OCO2)n1nnc2cc(F)c(F)cc21 reads 60.7

Documented growth of N#Cc1c2c(nn(-c3ccccc3)c1=O)C(O)=C([N+](=O)[O-])C(c1ccccc1)C2 (centres undefined) : 81.6
